So I've got a bunch of binders here, and I need their Ratio over Background values.
target: T1, Soluble IGF-1R (R&D Systems, Cat. # 391-GR/CF); recombinant human IGF-1R (human, UniProt P08069 31-935); experiment: phage ELISA vs milk
T1 construct: extracellular domain; Eu3+-labelled in the TR-FRET assays; also called sIGF-1R; rhIGF-1R
Positions of bridges follow the written chain, without caps; N, C: chain ends. No end group written: not given here.
Give the value in fold but do not write fold after it.

Prompt: Request the reported Ratio over Background associated with VERSASSQDGNFYDWFVVQIR [A6S-2-D1-IR]
Response: 30.6

Prompt: Follow-up item: DSVGDNFYQLLESLVGGHGVG [20E28-3-D6-IGFR]
Response: 17.8

Prompt: Follow-up item: SACQFDCHENFYDWFARQVSGGAAYG (not fully specified (bridges); cysteine pairing not given here) [H2CA-4-H8-IGFR]
Response: 9.2

Prompt: Follow-up item: VATSQGFYSGLSELLQGGGNV [20E2H-3-E12-IGFR]
Response: 6

Prompt: Follow-up item: DRAFYNGLRDLVGAVYGAWD [R20α-4-20C11-IR]
Response: 30.8

Prompt: Follow-up item: GVRAMSFYDALVSVLGLGPSG [20E2B-1-A6-IGFR]
Response: 18.1

Prompt: Follow-up item: RFSTDGFYQYLLALVGGGPVG [20E28-1-A11-ICFR]
Response: 9.5

Prompt: Follow-up item: FFYDCLAALLQGVARYHDLCAVEIT (disulfide 5-20 (inferred)) [20C-4-C7-IGFR]
Response: 28

Prompt: Follow-up item: RGMKEEVLVGGSTDPFYHKLSELLQGS [B6Hα-3-F11-IR]
Response: 18.7

Prompt: Follow-up item: QGNVLDFYGWIGRLLAKQGSD [20E2B-3-D12-IGFR]
Response: 6.2

Prompt: Follow-up item: APDPSDFQEIFYDWFVRQVSRMPGGG [H2CA-1-A3-IGFR]
Response: 3.8

Prompt: Follow-up item: VGYQGQGDENFYDWFIRQVSGRLGVQ [H2CA-4-F5-IGFR]
Response: 9.7

Prompt: Follow-up item: GCAVVEEAERSRGDPFYHKLSELIQGC (disulfide 2-27 (inferred)) [B6Hα-3-E7-IR]
Response: 5.6

// data source = patent US20030236190A1
